Listed next: entries and their corresponding dCas9 with SSAP activity (normalized).
# Test system: gene editing with dCas9
# run-description: Screen of 322 new SSAP proteins, gene editing activity with dCas9 (Table 5)
# Assay type: cell-based
# test-settings: normalized

# molecule, dCas9 with SSAP activity (normalized)
records = [
    ("SSAP_72: SEQ ID NO: 241 (protein) ATNSSLKNQLSKKENVTIGNTMQGLLNNPKMKKRFEEILDKKAPQYMSSILNLYNGDTSLQKCEPMSVLSSSMIAATMDLPVDKNLGYAWIVPYKNKAQFQMGYKGYIQLALRTGQYKHINAIEIHEGELVNWNPLTEELEIDFTKKESDKIIGYAGYFELLNGFKKSTYWTKTQIENHRKKFSKSDYGWNKDFDAMAIKTVIRNMLSKWGILSIEMQNAYTADENIIKDSFIDDSENVSANIEDLVEADYTVNQDSLESKEEFEGTPLE", 1.131),
    ("SSAP_261: SEQ ID NO: 430; Peptoniphilus grossensis (protein, listed as Peptoniphilus grossensis) TNIQKQENRALSPVNQMKNLLKNQGMQNLFADALKENKDRFLASIIDLYNGDTSLQDCNPKEVVMEALKAATLNLPINKNLGYAYIVPYNSKGTTRPQFQIGYKGYIQMAQRSGQYKALNAGILYEGMEVKRDFLRGTFEIIGEPKSDKVMGYFAYFQLLNGYEKAIYMTKDEVTEHAERYSQSYGSKYSPWKKQFDEMGQKTVIKKLLSKYGVLTTEFQDAVKEEEDREVLRATENNAMLEMTNPDEEEETIEVNPETGEIIEDDVKAPF", "−1.199"),
]
